These data points were gathered from ChEMBL document CHEMBL5665443.

Each entry below carries its recorded inhibition.
target: Adenine DNA glycosylase (Homo sapiens) (UniProt Q9UIF7); conditions: Compound Concentration 10.0 uM, Hit No;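 further: human MUTYH activity read as 594 nm fluorescence from cleavage and release of a quenched DNA duplex, coupled with APE1 for strand incision, lower signal meaning inhibition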
Sequence (Q9UIF7 whole entry): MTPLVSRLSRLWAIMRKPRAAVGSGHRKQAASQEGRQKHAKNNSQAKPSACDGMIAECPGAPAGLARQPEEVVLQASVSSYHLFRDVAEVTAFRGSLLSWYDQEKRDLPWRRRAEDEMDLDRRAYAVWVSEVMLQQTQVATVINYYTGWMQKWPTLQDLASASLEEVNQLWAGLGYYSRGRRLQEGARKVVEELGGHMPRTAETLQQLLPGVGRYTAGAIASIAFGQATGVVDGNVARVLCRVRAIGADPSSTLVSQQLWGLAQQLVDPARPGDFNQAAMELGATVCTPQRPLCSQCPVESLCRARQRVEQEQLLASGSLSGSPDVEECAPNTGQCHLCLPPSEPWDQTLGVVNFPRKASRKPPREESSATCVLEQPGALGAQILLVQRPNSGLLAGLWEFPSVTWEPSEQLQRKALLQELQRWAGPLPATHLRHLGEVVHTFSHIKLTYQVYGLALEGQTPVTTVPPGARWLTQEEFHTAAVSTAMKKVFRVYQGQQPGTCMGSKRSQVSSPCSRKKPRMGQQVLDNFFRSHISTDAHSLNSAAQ
Description: Inhibition of MUTYH by quantifying inhibition of MUTYH-mediated cleavage and dissociation of quenched duplex DNA oligonucleotides, measured as fluorescence at 594 nm. To generate a functional strand incision and increase turn-over this assay is coupled to APE1.
Write the number in % without appending the unit.

Past entries and their recorded results:
1. CCCCC(=O)N(Cc1ccc(-c2ccccc2-c2nnn[nH]2)cc1)[C@H](C(=O)O)C(C)C    34.3
2. CN1CCN(c2ccc(Nc3c4ccccc4nc4ccccc34)cc2)CC1    113
3. COc1ccc(C(=O)N2CCN(C(=O)/C=C/c3ccc(Br)cc3)CC2)cc1    16.7
4. O=C(O)C[C@H]1CCc2c1[nH]c1ccc(OCc3ccc(C4CCCC4)c(C(F)(F)F)c3)cc21    9.75
5. CN(C(=O)c1cnn2cccnc12)c1cc2c(cc1N1CCOCC1)C(=O)N(C[C@@H](F)C(C)(C)O)C2    2.33

Challenge: GET /values?readout=inhibition&item= CN1CCc2cc(Cl)c(O)cc2[C@@H](c2ccccc2)C1
Response given: 14.8

Challenge: Query (molecule): Cc1cc([C@@H](C)Nc2cccc(-c3cc(C)c(C(=O)N[C@@H](C)C(=O)O)c(C)c3)c2)ccc1Cl ; field requested: inhibition
Response given: 43.4

Challenge: Data request, read-out inhibition, for CNc1nc(-c2ccc3c(N)n[nH]c3c2)cc(N2C[C@@H](C(=O)NC3CCCCC3)CC[C@H]2C)n1
Response given: 25.6

Challenge: Fill in: inhibition of CC(=O)Nc1cccc2c1c(Sc1ccc(Cl)cc1)c(C)n2CC(=O)O is ___
Response given: 23.9

Challenge: Given the entry c1ccc2nc(N3CCNCC3)ccc2c1 , report its measured inhibition.
Response given: 11.1

---

target: Endonuclease III-like protein 1 (Homo sapiens); conditions: Compound Concentration 10.0 uM, Hit No;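 further: enzyme assay tracking NTHL1 cutting and release of a quenched double-stranded DNA oligo substrate, read as fluorescence at 594 nm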
Description: Inhibition of NTHL1 by quantifying inhibition of NTHL1-mediated cleavage and dissociation of quenched duplex DNA oligonucleotides, measured as fluorescence at 594 nm.
attribute.measured: inhibition (%)
Give your result in % as a bare value.

These solved cases illustrate the format of a correct answer.
1) COc1ccc(CC(=O)NC(N/C(=N/C#N)Nc2cccc3ncccc23)C(C)(C)C)cc1OC (centres undefined)    16.2
2) C[C@H]1CN(C[C@H](Cc2ccccc2)C(=O)NCC(=O)O)CC[C@@]1(C)c1cccc(O)c1    34.4
3) CC(=O)N1CCC(c2ccc(C(=O)NC(=N)N)cc2C(F)(F)F)CC1    5.94
4) O=c1[nH]c2ccccc2n1CCCN1CCN(C(c2ccccc2)c2ccccc2)CC1    -3.26
5) COc1ccc(Cl)cc1[C@]1(F)C(=O)Nc2cc(C(F)(F)F)ccc21    6.35

Challenge: If you can, please state the reported inhibition value of CN(C)CCCc1cc(C(=O)Nc2ccc(-c3ccncc3)cc2)ccc1O .
Response given: 12.1

Challenge: Item under review: C[C@H](N)COC(=O)[C@@H](CCCCN)NC(=O)Cc1c(-c2ccc3ccccc3c2)[nH]c2c1ccc1ccccc12 . Reported inhibition?
Response given: 5.59

Challenge: Tell me the measured inhibition of Cc1cccc(-c2cnc3occ(-c4ccc(C(=O)O)c(C5CCCC5)c4)c3c2)c1 , please.
Response given: 4.27

Challenge: inhibition lookup needed for Cc1ccccc1-c1cc(N2CCN(C)CC2)ncc1N(C)C(=O)C(C)(C)c1cc(C(F)(F)F)cc(C(F)(F)F)c1 , thanks.
Response given: 21.7

Challenge: # get_value(readout='inhibition', item= CCNC(=O)N1CCCN(c2ccc(C(=O)NCCc3ccc(Cl)cc3Cl)cc2NC(=O)c2cccc(Cl)c2)CC1 )
Response given: -5.21

Challenge: Quick one: inhibition of CC1(C)CCC[C@]2(C)[C@@H](C=O)C(C=O)=CC[C@@H]12 ?
Response given: -1.08

Challenge: Look at this compound and give its reported inhibition. Cc1cc(C)c(N)c(C#Cc2cccc(F)c2)n1
Response given: -3.21

Challenge: Need inhibition of Cc1nc(-c2ccc(C(F)(F)F)cc2)sc1COc1ccc([C@H](CC(=O)O)c2ccon2)cc1 , thanks.
Response given: 16.6

Challenge: Data request, read-out inhibition, for CCOC(=O)c1ccc(N2C(=O)C(O)=C(C(=O)c3ccc(OC)cc3)C2c2ccc(F)cc2)cc1 (centres undefined)
Response given: 21.2

Challenge: Endpoint output: inhibition of C[C@H](NC(=O)Cc1ccc(-c2ccc3cccnc3n2)cc1)c1ccc(-c2ccc(F)c(C(F)(F)F)c2)cc1 . Value?
Response given: 14.6

Challenge: Would you kindly share the measured inhibition for COc1cc(O)c(C(CC(=O)N2C[C@H](C)C[C@H](C)C2)c2ccc3c(c2)OCO3)c(OC)c1 (some centres undefined) ?
Response given: -3.92

Challenge: Any idea what its inhibition is? The compound is CN[C@@H](C)C/C=C/c1cncc(OC(C)C)c1
Response given: 4.7

Challenge: Give its inhibition value. Item: CCCNC(=O)c1nnc2c(-c3c(F)cccc3OC)cccc2c1N
Response given: 27.8

Challenge: Record request: inhibition value, item N#Cc1cccc(-c2nc(-c3cccnc3)no2)c1
Response given: -1.08

Challenge: For NC(CCP(=O)(O)O)C(=O)O (racemic) , what is its reported inhibition?
Response given: 2.66

---

target: Endonuclease 8-like 1 (Homo sapiens) (UniProt Q96FI4); settings: Compound Concentration 10.0 uM, Hit No
Sequence (Q96FI4 whole entry): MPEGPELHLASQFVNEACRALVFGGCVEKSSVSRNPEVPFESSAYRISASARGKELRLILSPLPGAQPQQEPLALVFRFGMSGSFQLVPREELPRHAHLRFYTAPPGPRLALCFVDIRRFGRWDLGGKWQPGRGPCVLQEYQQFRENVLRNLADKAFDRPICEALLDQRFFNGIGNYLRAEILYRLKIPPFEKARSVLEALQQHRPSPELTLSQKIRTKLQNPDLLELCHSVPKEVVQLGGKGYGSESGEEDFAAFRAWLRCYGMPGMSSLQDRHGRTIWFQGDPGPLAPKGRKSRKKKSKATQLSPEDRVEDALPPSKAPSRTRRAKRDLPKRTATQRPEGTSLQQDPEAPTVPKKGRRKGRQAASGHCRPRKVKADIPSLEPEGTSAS
Description: Inhibition of NEIL1 by quantifying inhibition of NEIL1-mediated cleavage and dissociation of quenched duplex DNA oligonucleotides, measured as fluorescence at 594 nm.
attribute.measured: inhibition
Param answer (str): number followed by unit.

1. C=CC(=O)N1CCC([C@@H]2CCNc3c(C(N)=O)c(-c4ccc(Oc5ccccc5)cc4)nn32)CC1    -8.45%
2. CC(=O)Nc1c(F)cc(C(=O)N[C@H]2CC[C@H](O)CC2)cc1O[C@@H](C)c1ccccc1    2.28%
3. Cc1cc(NC(=O)Nc2ccccc2)n(-c2ccccc2)n1    1.64%
4. CCCCc1nc2ccc(NC(=O)NC3CCCCC3)cc2n1Cc1ccc(-c2ccccc2C(=O)O)cc1    9.29%
5. NC[C@@H]1O[C@H](C23CC4CC(CC(C4)C2)C3)Cc2c1ccc(O)c2O    18.5%

Challenge: Fill in the recorded inhibition for this molecule, with Endonuclease 8-like 1 (Homo sapiens) (UniProt Q96FI4) as test system: CCCSc1nc(N[C@@H]2C[C@H]2c2ccc(F)c(F)c2)c2nnn([C@@H]3C[C@H](OCCO)[C@@H](O)[C@H]3O)c2n1
Response given: -9.1%

Challenge: Observed inhibition on Endonuclease 8-like 1 (Homo sapiens) (UniProt Q96FI4) for COc1ccccc1CN[C@H]1C2CCN(CC2)[C@H]1C(c1ccccc1)c1ccccc1 , please.
Response given: -4.06%

Challenge: Query for Endonuclease 8-like 1 (Homo sapiens) (UniProt Q96FI4): what inhibition does the record show for CC(C)(N)C(=O)N[C@H](COCc1ccccc1)C(=O)N1CCC2(CC1)CN(S(C)(=O)=O)c1ccccc12 ?
Response given: 7.36%

Challenge: Request: inhibition, test system Endonuclease 8-like 1 (Homo sapiens) (UniProt Q96FI4), entry CN1CCCC(n2nc(Cc3ccc(Cl)cc3)c3ccccc3c2=O)CC1 (centres undefined)
Response given: -7.17%

---

molecular target: Endonuclease 8-like 1 (Homo sapiens) (UniProt Q96FI4); details: Compound Concentration 10.0 uM, Hit No
attribute.measured: inhibition (%)
Give a bare numeral; the unit % is implied.

1. CN1CCN(c2nc(N)c3ccccc3n2)CC1    6.68
2. N#Cc1ccc2[nH]cc(CCCCN3CCN(c4ccc5oc(C(N)=O)cc5c4)CC3)c2c1    14.2
3. Cc1nc2sccn2c(=O)c1CCN1CCC(=C(c2ccc(F)cc2)c2ccc(F)cc2)CC1    -4.65
4. O=C(Nc1cccnc1)c1cc(-c2ccnc(F)c2)ccc1OCc1ccccc1    -5.94
5. COc1ccc2c(O[C@@H]3C[C@H]4C(=O)N[C@]5(C(=O)O)CC5/C=C\CCCCC[C@H](NC(=O)OC5CCCC5)C(=O)N4C3)cc(-c3csc(NC(=O)C(C)C)n3)nc2c1C (some centres undefined)    -5.14
6. CC1(C)[C@H]2C[C@H](C/C=C\CCCC(=O)O)[C@@H](NC(=O)c3csc4ccc(O)cc34)[C@@H]1C2    13.3

Challenge: Form: Entry = CCc1nnc(NS(=O)(=O)c2ccc(NC(=S)NC(=O)/C=C/c3ccc(F)cc3)cc2)s1 | System = Endonuclease 8-like 1 (Homo sapiens) (UniProt Q96FI4) | inhibition = ____
Response given: -4.5

Challenge: Give inhibition (Endonuclease 8-like 1 (Homo sapiens) (UniProt Q96FI4)) of the following molecule: CCCCCCCCc1ccc(CCC(N)(CO)CO)cc1
Response given: 4.69

Challenge: Query for Endonuclease 8-like 1 (Homo sapiens) (UniProt Q96FI4): what inhibition does the record show for N[C@@H](Cn1cc(F)c(=O)[nH]c1=O)C(=O)O ?
Response given: -2.06

---

molecular target: Endonuclease 8-like 1 (Homo sapiens) (UniProt Q96FI4); details: Compound Concentration 10.0 uM, Hit No;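 further: fluorescence at 594 nm from quenched duplex DNA oligonucleotides released by NEIL1 cleavage and strand separation, reported as reduction of this enzyme activity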
List of inhibition values.
Report the figure in % without appending any unit label.

Recorded inhibition, per entry:
1. CC[N+](CC)(CC)CCOc1ccc(/C=C/c2ccccc2)cc1    3.86
2. CCOc1ccn(-c2ccc(F)cc2)c(=O)c1C(=O)Nc1ccc(Oc2ccnc(N)c2Cl)c(F)c1    6.08
3. COc1cc(-c2cncc(-c3ccc(N4CCN(C(C)C)CC4)cc3)c2C)cc(F)c1C(N)=O    5.68
4. Cc1ccc2c(c1)c1c(n2CCc2ccc(C)nc2)CCN(C)C1    -8.95

Shift focus to the following entry.
Challenge: Could you share which inhibition value was measured for N#Cc1ccc(NC(=O)Nc2ccccc2Br)c2nn[nH]c12 ?
Response given: 0.686
